# test.system: Fer (Homo sapiens, UniProt P16591)
# Sequence (P16591 whole entry): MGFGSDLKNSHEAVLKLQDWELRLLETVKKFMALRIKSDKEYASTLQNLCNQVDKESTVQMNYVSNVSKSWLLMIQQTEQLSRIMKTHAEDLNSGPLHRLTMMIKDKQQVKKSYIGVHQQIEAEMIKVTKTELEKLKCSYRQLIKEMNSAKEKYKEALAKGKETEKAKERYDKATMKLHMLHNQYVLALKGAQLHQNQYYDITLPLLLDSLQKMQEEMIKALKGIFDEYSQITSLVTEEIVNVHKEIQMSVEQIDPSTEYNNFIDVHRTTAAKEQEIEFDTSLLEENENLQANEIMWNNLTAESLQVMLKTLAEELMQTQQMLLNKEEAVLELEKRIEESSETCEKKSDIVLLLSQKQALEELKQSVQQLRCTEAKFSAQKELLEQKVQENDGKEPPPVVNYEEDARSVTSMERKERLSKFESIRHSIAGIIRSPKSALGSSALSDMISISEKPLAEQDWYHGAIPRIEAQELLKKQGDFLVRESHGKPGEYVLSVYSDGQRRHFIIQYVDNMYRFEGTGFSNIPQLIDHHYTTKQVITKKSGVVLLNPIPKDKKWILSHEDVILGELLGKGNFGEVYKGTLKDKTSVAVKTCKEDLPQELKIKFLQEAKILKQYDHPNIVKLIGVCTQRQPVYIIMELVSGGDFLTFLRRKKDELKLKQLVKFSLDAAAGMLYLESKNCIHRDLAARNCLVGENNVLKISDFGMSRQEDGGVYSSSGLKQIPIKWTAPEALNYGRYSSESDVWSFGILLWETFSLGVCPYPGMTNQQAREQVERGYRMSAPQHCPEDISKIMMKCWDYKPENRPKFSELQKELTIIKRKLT
value.kind: IC50 (nM)
Reply with just the number (in nM).

// IC50 value for Cc1ccc(F)cc1C[C@H](C)Nc1cc[nH]c(=O)c1-c1nc2cc3c(cc2[nH]1)C(=O)N(CCN1CCCC1)C3 : 42

* * *

# test.system: IGF1R (Homo sapiens)
# Construct: 6×His- or GST-tagged kinase domain fragments of the corresponding RTKs expressed in baculovirus system; host or cells: baculovirus system
# Sequence (P08069 999-1274 limits assumed): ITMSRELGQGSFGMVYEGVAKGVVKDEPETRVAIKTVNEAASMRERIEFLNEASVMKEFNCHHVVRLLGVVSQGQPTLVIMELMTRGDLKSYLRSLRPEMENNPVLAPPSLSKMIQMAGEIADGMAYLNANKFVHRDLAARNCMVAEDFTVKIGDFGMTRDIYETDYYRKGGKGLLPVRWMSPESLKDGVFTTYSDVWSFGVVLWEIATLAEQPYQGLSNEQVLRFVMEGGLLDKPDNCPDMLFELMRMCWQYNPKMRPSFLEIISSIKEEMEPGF
# method.notes: IGF1R kinase assay
# Type: biochemical
# assay.setup: Table 1; read-out: IGF1R IC50
Please go through the items and note down their IC50.

// IC50 value for C[C@H](Nc1cc[nH]c(=O)c1-c1nc2cc3c(cc2[nH]1)C(=O)N(CCCN1CCCC1)C3=O)[C@H](O)c1ccccc1 : 250 to 1000 nM

// IC50 value for COc1ccc(OC)c(C[C@H](C)Nc2cc[nH]c(=O)c2-c2nc3cc4c(cc3[nH]2)CN(CCN2CCCC2)C4=O)c1 : > 1000 nM

// IC50 value for COc1cc(F)c(F)c(C[C@H](C)Nc2cc[nH]c(=O)c2-c2nc3cc4c(cc3[nH]2)CN(CCN2CCCC2)C4=O)c1OC : > 1000 nM

// IC50 value for C[C@@H](Cc1cccs1)Nc1cc[nH]c(=O)c1-c1nc2cc3c(cc2[nH]1)C(=O)N(CCCN(C)C)C3 : 250 to 1000 nM

// IC50 value for CCS(=O)(=O)CCN1CCC(N2Cc3cc4nc(-c5c(N[C@@H](C)Cc6cccs6)cc[nH]c5=O)[nH]c4cc3C2=O)CC1 : 250 to 1000 nM

// IC50 value for Cc1ccsc1C[C@H](C)Nc1cc[nH]c(=O)c1-c1nc2cc3c(cc2[nH]1)C(=O)N(CC(C)CN1CCCC1)C3 (stereo partly shown) : 250 to 1000 nM

// IC50 value for Cc1c(F)cc(F)cc1C[C@H](C)Nc1cc[nH]c(=O)c1-c1nc2cc3c(cc2[nH]1)CN(CCN(C)C)C3=O : 250 to 1000 nM
